Assay: Maximum blood concentration after oral dosing at 2 mg/kg in rat
Format: ADME, organism-based
Design: dose 2 mg/kg, route oral
Recorded Cmax for the following molecules
Hi! Could you send only the number? It should be in µg/mL, unit omitted.

Guide cases for Cmax, answers given:
1. c1ccc(-c2[nH]c3ccccc3c2C2CCCNC2)cc1 (stereo not given): 0.026
2. Fc1ccc(-c2[nH]c3cc(F)ccc3c2[C@@H]2CNCC[C@H]2F)cc1: 0.149
3. O=C1NCCN1CCN1CCCC(c2c(-c3ccccc3)[nH]c3ccccc23)C1 (stereo not given): 0.085
4. O=C(Nc1ccccc1)c1[nH]c2cc(F)ccc2c1[C@@H]1CNCC[C@H]1F: 0.003

# evaluate next
Looking up c1ccc(CCN2[C@@H]3CC[C@H]2CC(c2c(-c4ccccc4)[nH]c4ccccc24)C3)cc1 (stereo not given in full) , I found its Cmax recorded as 0.21

###

Experiment: Terminal half-life following iv dosing in dog, measured over 48 hr
Type: ADME, organism-based, Canis lupus familiaris
Conditions: in vivo
OBSERVED PROPERTY: half-life (h)
Hi! Could you send only the number? It should be in h, unit omitted.

Looking up Fc1ccc2c([C@@H]3CNCC[C@H]3F)c(-c3ccccc3)[nH]c2c1 , I found its half-life recorded as 6.4

###

Biological target: Adrenergic receptor alpha-1 (Rattus norvegicus, UniProt P15823+P23944+P43140)
Sequence (P15823 whole entry): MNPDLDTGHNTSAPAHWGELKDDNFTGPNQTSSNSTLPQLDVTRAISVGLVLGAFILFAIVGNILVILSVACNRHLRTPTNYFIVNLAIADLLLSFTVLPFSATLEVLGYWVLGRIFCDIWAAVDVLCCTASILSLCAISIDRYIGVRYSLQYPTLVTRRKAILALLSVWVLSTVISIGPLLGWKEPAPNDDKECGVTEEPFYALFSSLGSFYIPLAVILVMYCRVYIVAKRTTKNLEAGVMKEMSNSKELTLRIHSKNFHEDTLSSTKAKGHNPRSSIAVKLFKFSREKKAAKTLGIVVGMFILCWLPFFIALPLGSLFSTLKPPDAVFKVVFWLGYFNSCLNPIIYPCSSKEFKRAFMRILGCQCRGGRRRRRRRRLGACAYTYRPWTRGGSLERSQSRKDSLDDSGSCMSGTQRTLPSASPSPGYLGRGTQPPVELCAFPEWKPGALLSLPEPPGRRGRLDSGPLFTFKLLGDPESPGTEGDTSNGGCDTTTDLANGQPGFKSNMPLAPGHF
Sequence (P23944 whole entry): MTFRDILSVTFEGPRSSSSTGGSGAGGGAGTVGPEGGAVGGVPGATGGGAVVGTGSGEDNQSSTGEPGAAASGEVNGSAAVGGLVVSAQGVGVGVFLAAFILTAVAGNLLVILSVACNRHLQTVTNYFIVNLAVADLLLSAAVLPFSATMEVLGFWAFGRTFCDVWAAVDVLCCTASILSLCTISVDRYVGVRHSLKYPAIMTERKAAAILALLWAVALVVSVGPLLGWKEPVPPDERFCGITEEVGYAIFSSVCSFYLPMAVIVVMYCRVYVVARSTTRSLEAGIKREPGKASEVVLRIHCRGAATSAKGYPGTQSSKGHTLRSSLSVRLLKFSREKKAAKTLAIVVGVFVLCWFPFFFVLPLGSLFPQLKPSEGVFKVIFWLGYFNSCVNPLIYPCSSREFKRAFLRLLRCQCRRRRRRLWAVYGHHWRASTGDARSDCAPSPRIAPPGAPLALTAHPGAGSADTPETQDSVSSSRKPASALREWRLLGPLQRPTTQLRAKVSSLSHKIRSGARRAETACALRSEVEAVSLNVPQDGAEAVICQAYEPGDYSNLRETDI
Sequence (P43140 whole entry): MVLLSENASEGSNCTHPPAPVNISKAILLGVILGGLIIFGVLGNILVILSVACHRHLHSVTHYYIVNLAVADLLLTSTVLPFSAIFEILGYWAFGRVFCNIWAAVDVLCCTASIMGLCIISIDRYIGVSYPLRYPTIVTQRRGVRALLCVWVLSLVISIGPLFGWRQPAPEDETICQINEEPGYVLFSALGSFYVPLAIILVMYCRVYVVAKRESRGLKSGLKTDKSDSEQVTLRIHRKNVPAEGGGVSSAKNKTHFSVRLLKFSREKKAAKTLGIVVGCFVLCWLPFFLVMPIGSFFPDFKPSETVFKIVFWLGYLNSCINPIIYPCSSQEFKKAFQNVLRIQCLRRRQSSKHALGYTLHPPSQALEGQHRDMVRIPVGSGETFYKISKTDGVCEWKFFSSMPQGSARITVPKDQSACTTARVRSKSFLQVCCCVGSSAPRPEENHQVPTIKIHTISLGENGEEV
Assay: Ability to displace [3H]-prazosin binding to rat cortical membranes expressing Alpha-1 adrenergic receptors
OBSERVED PROPERTY: Ki (µM)
Hi! Could you send only the number? It should be in µM, unit omitted.

1. F[C@@H]1CCNC[C@H]1c1c(-c2ccccc2)[nH]c2cc(Cl)ccc12: 0.016
2. c1ccc(CCN2CCC(c3c(-c4ccccc4)[nH]c4ccccc34)CC2)cc1: 0.025
3. O=C(Nc1ccccc1)c1[nH]c2cc(F)ccc2c1[C@@H]1CNCC[C@H]1F: 0.0039
4. Fc1ccc2[nH]c(-c3ccccc3)c([C@@H]3CNCC[C@H]3F)c2c1: 0.21
5. F[C@@H]1CCNC[C@H]1c1c(-c2ccccc2)[nH]c2ccc(Cl)cc12: 0.04
6. Fc1cccc2c([C@@H]3CNCC[C@H]3F)c(-c3ccccc3)[nH]c12: 0.027

Looking up Fc1ccc2c([C@@H]3CNCC[C@H]3F)c(-c3ccoc3)[nH]c2c1 , I found its Ki recorded as 0.0036

Looking up Fc1ccc(-c2[nH]c3cc(F)ccc3c2C2CCCNC2)cc1 (stereo not drawn) , I found its Ki recorded as 0.0011

Looking up c1ccc(-c2[nH]c3ccccc3c2C2CCNCC2)cc1 , I found its Ki recorded as 2.1

Looking up c1ccc(-c2[nH]c3ccccc3c2C2CCCNC2)cc1 (stereo not drawn) , I found its Ki recorded as 0.021

Looking up Fc1ccc(-c2[nH]c3cc(F)ccc3c2[C@@H]2CNCC[C@H]2F)cc1 , I found its Ki recorded as 0.0029

Looking up F[C@@H]1CCNC[C@H]1c1c(-c2ccccc2)[nH]c2c(Cl)cccc12 , I found its Ki recorded as 0.0067

Looking up CN1CCCC(c2c(-c3ccccc3)[nH]c3ccccc23)C1 (stereo not drawn) , I found its Ki recorded as 0.03

Looking up Fc1ccc2c([C@@H]3CNCC[C@H]3F)c(-c3ccc4ccccc4c3)[nH]c2c1 , I found its Ki recorded as 0.0021

Looking up Fc1ccc2c([C@@H]3CNCC[C@H]3F)c(-c3cccc4ccccc34)[nH]c2c1 , I found its Ki recorded as 0.0085

Looking up F[C@@H]1CCNC[C@H]1c1c(-c2ccccc2)[nH]c2ccccc12 , I found its Ki recorded as 0.025

Looking up Fc1ccc2c([C@@H]3CNCC[C@H]3F)c(-c3cccnc3)[nH]c2c1 , I found its Ki recorded as 0.0073

Looking up Fc1ccc2c([C@@H]3CNCC[C@H]3F)c(-c3ccsc3)[nH]c2c1 , I found its Ki recorded as 0.0028

Looking up c1ccc(CN2CCCC(c3c(-c4ccccc4)[nH]c4ccccc34)C2)cc1 (stereo not drawn) , I found its Ki recorded as 0.047

Looking up COC(=O)c1[nH]c2cc(F)ccc2c1[C@@H]1CNCC[C@H]1F , I found its Ki recorded as 0.0073

Looking up c1ccc(CCN2[C@@H]3CC[C@H]2CC(c2c(-c4ccccc4)[nH]c4ccccc24)C3)cc1 (stereo partly drawn) , I found its Ki recorded as 0.25

Looking up CN1CCCCC1c1c(-c2ccccc2)[nH]c2ccccc12 (stereo not drawn) , I found its Ki recorded as 0.099

Looking up Fc1ccc2c([C@@H]3CNCC[C@H]3F)c(C3CCCCC3)[nH]c2c1 , I found its Ki recorded as 0.021

###

Assay: Terminal half-life following iv dosing in rat, measured over 48 hr
Format: ADME, organism-based
Conditions: in vivo
OBSERVED PROPERTY: half-life (h)
Hi! Could you send only the number? It should be in h, unit omitted.

Looking up Fc1ccc2c([C@@H]3CNCC[C@H]3F)c(-c3ccccc3)[nH]c2c1 , I found its half-life recorded as 12

###

Test: Bioavailability in dog (dose 0.5-2 mg/kg i.v. and p.o.)
Format: ADME, organism-based, Canis lupus familiaris
Conditions: in vivo, po
OBSERVED PROPERTY: bioavailability (%)
Hi! Could you send only the number? It should be in %, unit omitted.

1) F[C@@H]1CCNC[C@H]1c1c(-c2ccccc2)[nH]c2ccccc12: 37

Looking up c1ccc(CCN2CCC(c3c(-c4ccccc4)[nH]c4ccccc34)CC2)cc1 , I found its bioavailability recorded as 4

###

Molecular target: D(2) dopamine receptor (Homo sapiens, UniProt P14416)
Sequence (P14416 whole entry): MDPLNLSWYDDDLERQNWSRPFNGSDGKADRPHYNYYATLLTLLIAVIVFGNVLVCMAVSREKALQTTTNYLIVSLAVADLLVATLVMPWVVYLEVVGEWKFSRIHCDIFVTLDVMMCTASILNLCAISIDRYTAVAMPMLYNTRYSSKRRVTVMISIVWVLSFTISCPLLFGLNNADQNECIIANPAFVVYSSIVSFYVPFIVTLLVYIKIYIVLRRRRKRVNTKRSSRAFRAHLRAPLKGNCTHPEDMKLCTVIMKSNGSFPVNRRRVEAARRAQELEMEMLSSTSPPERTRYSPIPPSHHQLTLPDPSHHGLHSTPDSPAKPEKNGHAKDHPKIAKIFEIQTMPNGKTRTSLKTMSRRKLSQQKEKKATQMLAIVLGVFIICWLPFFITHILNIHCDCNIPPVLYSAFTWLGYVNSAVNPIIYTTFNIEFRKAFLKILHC
Experiment: Ability to displace [3H]spiperone binding to CHO cells stably expressing dopamine receptor D2
OBSERVED PROPERTY: pKi
Reminder that pKi means the negative base-10 logarithm of the concentration expressed in mol/L.

Guide cases for pKi, answers given:
1. c1ccc(-c2[nH]c3ccccc3c2C2CNCCO2)cc1 (stereo not given): 5.80
2. Fc1ccc(-c2[nH]c3cc(F)ccc3c2[C@@H]2CNCC[C@H]2F)cc1: 6.05
3. CN1CCCC(c2c(-c3ccccc3)[nH]c3ccccc23)C1 (stereo not given): 7.55
4. c1ccc(CN2CCCC(c3c(-c4ccccc4)[nH]c4ccccc34)C2)cc1 (stereo not given): 5.80
5. c1ccc(CCN2CCC(c3c(-c4ccccc4)[nH]c4ccccc34)CC2)cc1: 6.46

Looking up Fc1ccc2c([C@@H]3CNCC[C@H]3F)c(-c3ccc4ccccc4c3)[nH]c2c1 , I found its pKi recorded as 6.30
